# study_system: Muscarinic acetylcholine receptor M4 (Homo sapiens) (UniProt P08173)
# Sequence (P08173 whole entry, looked up): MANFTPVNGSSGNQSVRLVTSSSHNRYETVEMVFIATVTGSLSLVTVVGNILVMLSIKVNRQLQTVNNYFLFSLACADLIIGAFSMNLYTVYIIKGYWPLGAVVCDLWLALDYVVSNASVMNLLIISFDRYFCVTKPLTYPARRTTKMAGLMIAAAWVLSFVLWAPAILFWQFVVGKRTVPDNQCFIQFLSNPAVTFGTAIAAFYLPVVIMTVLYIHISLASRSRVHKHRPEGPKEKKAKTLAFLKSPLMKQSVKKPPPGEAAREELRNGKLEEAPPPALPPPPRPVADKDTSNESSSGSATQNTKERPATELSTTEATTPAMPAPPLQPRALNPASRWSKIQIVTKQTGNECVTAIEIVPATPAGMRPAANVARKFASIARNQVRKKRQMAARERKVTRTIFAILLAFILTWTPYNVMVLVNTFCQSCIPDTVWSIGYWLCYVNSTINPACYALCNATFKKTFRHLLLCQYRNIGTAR
# method_notes: human M4 muscarinic receptor positive allosteric modulators, primary screen, CHO-K1 cells, Fluo-8 calcium fluorescence (AID 624126)
# cond: CHO-K1 hM4/Gqi5, Fluo-8 calcium fluorescence, ACh EC20; at 3 µM; stronger effect = higher value; 0% = ACh EC20, 100% = maximal ACh
The whole screen tested about 360,000 compounds, of which about 1,400 (0.39%) were called active. The sample as a whole holds a higher share of actives than the screen did.
# activation listing for each entry below
# unit: % | format: bare number

// below: answered molecules
CCn1cc(C(=O)NCCO)c(=O)c2cc(F)c(N3CCN(C)CC3)cc21 :: -4.27
CC(C)(C)C(=O)Nc1ccc(-c2cn3cccnc3n2)cc1 :: 1.07
CCOc1ccc(S(=O)(=O)Nc2cccc(C(=O)NCC3(N4CCCCC4)CCCCC3)c2)cc1 :: -3.09
Cc1ccc(S(=O)(=O)N2CCCCC2)cc1C(=O)N1CCN(CCO)CC1 :: 7.4
Cc1cc(C)c(C)c(S(=O)(=O)N2CCN(C(=O)c3ccc4c(=O)n5c(nc4c3)CCC5)CC2)c1C :: -1.12
N#CCSc1ccccc1NC(=O)CN1C(=O)NC(CCc2ccccc2)C1=O (configuration not stated) :: 1.07
COc1ccc(CN2C(=O)C(CC(=O)NC3CCCCC3)CC(C(=O)N3CCOCC3)=C2C)cc1 (configuration not stated) :: 0.19
CCOC(=O)[C@]12CCCC=C1N(Cc1ccc3c(c1)OCO3)C(=O)[C@H](CC(=O)NCc1cccs1)C2 :: 23.3
COc1ccc(CCNC(=O)COC(=O)c2ccc[nH]c2=O)cc1 :: 11.3
Cc1ccc(N(C(=O)c2ccc(CN3CCOCC3)o2)C(C(=O)NCCC(C)C)c2cccs2)c(C)c1 (configuration not stated) :: 9.68

O=C(NCc1ccccc1Cl)C(=O)NCC1CCCN1S(=O)(=O)c1cccs1 (configuration not stated) yielded activation of -2.08

Cc1c(-c2cccc(Cl)c2)nc2ccccc2c1C(=O)OCC(=O)N(C)C1CCS(=O)(=O)C1 (configuration not stated) yielded activation of 22.5

`O=C(CN1CCSCC1)N/N=C/c1ccc(F)cc1F` yielded activation of 4.64

`Cc1sc2ncnc(N3CCC(C(=O)Nc4ccc(F)cc4Cl)CC3)c2c1C` yielded activation of 45

`Cc1c(Cl)cccc1NC(=O)CCC(=O)N/N=C/c1ccco1` yielded activation of 4.77

Cc1ccc(S(=O)(=O)N(C)C)cc1NC(=O)C(C)OC(=O)c1ccc2ccccc2n1 (configuration not stated) yielded activation of 21.1

`Cc1ccc(C(=O)NCC(=O)NCc2cc(=O)n(C)c(=O)n2C)cc1` yielded activation of -0.97

O=C(Nc1ccc(C2CC2(Cl)Cl)cc1)c1cccc([N+](=O)[O-])c1 (configuration not stated) yielded activation of -15.5

Numbers sourced from PubChem BioAssay AID624126.
